- testedTarget: pan-HDAC
- assayProtocol: In vitro enzyme inhibition assay - HDAC (HDAC-Glo I/II), pan-HDAC
- Format: biochemical
- Text: 2. In Vitro Enzyme Inhibition Assay—HDAC The effect of the compound on the enzymatic activity of pan-HDAC and two isoforms (HDAC1 and HDAC8) was examined using the HDAC-Glo I/II Assay and Screening System assay to assess the level of inhibition of HDAC protease activity and selectivity in each isoform. […] The 384-well plate was then read on a multifunctional microplate reader, with the Luminescence channel selected to record Luminescence values (RLU). […]
Where a name gives a salt, the structure may show the parent alone.
# Lookup of reported IC50 keyed by entry
Respond numerically; units are nM and should not be typed.

# annotated cases, reported IC50 shown
{"compound": "CC(C)(O)COc1ccc(-c2cnc(N3CCC(NCc4ccc(CCC(=O)NO)cc4)CC3)c(C#N)c2-c2ccc(C#N)c(F)c2)cc1O [Example 188, formate]", "IC50 (nM)": 5.07}
{"compound": "COc1ccc(-c2c(OCc3ccc(/C=C/C(=O)NO)cc3)cc(N3CCC(N)CC3)nc2-c2ccc(C#N)c(F)c2)cc1O [Example 2, hydrochloride]", "IC50 (nM)": 66.9}

Below: the item to evaluate.
## Input Give the value of IC50 reported for the following: N#Cc1ccc(-c2c(-c3ccc(CO)c(O)c3)cnc(N3CCC(NCc4ccc(/C=C/C(=O)NO)cc4)CC3)c2C#N)cc1F [Example 131, formate]
## Output 1.57
